Consider the following compounds; for each one, report its growth AUC normalised to DMSO control.
System: Vibrio cholerae
assay.explanation: growth AUC normalised to DMSO control (fraction of control); higher = less growth inhibition, active = hit call of the paper
settings: 20 µM
Structures can show the parent of a compound that is named as a salt.
Write the number on its own, no unit after it.

Ask: Supply reported growth AUC normalised to DMSO control belonging to this compound: CC(C)N(CCC(C(N)=O)(c1ccccc1)c1ccccn1)C(C)C (stereo not given) [Disopyramide]
Result: 0.983

Ask: For CCC(=O)O[C@H]1CC[C@H]2[C@@H]3CCC4=CC(=O)CC[C@]4(C)[C@H]3CC[C@]12C [Testosterone propionate] , write its growth AUC normalised to DMSO control.
Result: 1.04

Ask: Hello, please tell me recorded growth AUC normalised to DMSO control for this one: O=C1CC[C@@]2(O)[C@H]3Cc4ccc(O)c5c4[C@@]2(CCN3CC2CC2)[C@H]1O5 [Naltrexone hydrochloride dihydrate]
Result: 1

Ask: Retrieve growth AUC normalised to DMSO control measured for O=P1(N(CCCl)CCCl)NCCCO1 (stereo not given) [Cyclophosphamide] and print it.
Result: 1.04

Ask: Indicate the recorded growth AUC normalised to DMSO control value for this compound: CC(C)c1cccc(C(C)C)c1O [Propofol]
Result: 1.01
